# SYSTEM: human SGLT1 (Homo sapiens, UniProt P13866)
# Construct: mock-transfected cells as control)
# Sequence (P13866 whole entry): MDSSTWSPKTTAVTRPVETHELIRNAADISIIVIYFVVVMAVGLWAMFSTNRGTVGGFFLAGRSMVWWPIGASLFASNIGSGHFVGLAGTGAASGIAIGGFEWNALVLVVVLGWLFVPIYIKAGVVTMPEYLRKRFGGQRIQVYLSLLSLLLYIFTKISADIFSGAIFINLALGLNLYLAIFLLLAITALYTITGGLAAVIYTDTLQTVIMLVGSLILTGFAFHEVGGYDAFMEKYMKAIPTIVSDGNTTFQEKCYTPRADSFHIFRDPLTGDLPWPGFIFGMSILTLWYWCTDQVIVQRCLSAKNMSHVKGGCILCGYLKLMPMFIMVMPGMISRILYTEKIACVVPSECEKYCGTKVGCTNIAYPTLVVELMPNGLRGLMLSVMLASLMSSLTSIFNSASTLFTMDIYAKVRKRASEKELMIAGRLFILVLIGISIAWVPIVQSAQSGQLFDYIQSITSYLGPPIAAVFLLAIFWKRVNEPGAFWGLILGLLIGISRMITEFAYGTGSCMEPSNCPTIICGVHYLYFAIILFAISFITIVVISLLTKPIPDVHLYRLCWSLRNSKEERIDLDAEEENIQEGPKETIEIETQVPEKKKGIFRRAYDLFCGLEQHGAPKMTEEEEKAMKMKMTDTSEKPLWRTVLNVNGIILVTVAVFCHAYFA
# EXPERIMENTAL_PROTOCOL: Test of inhibitory activity on SGLT1 ([14C]-AMG uptake in CHO cells expressing human SGLT1)
# PARTICULARS: CHO cells expressing human SGLT1, 0.5 μM [14C]-AMG, 37° C., 1 hour
PROPERTY_LABEL: IC50 (nM)

{"columns": ["SAMPLE_SMILES", "SYSTEM", "PROPERTY_LABEL", "NUMERIC_VALUE"],
 "data": [
  ["Cc1ccc([C@]23OC[C@](C(C)(C)O)(O2)[C@@H](O)[C@H](O)[C@H]3O)cc1Cc1ccc(CCCC(=O)NC2(C(=O)NCCN(C)C)CCC2)cc1", "human SGLT1 (Homo sapiens, UniProt P13866)", "IC50", 0.23],
  ["CCC(CC)(NC(=O)CCCc1ccc(Cc2cc([C@]34OC[C@](C(C)(C)O)(O3)[C@@H](O)[C@H](O)[C@H]4O)ccc2C)cc1)C(=O)NCCN(C)C", "human SGLT1 (Homo sapiens, UniProt P13866)", "IC50", 1.51],
  ["Cc1ccc([C@]23OC[C@](C)(O2)[C@@H](O)[C@H](O)[C@H]3O)cc1Cc1ccc(OCCCC(=O)NC2(C(=O)NCCN(C)C)CCC2)cc1", "human SGLT1 (Homo sapiens, UniProt P13866)", "IC50", 0.55]
]}

P: Cc1ccc([C@]23OC[C@](C)(O2)[C@@H](O)[C@H](O)[C@H]3O)cc1Cc1ccc(CCCC(=O)NC2(C(=O)NCCN(C)C)CCC2)cc1
Q: Cc1ccc([C@]23OC[C@](C(C)(C)O)(O2)[C@@H](O)[C@H](O)[C@H]3O)cc1Cc1ccc(CCCC(=O)NC2(C(=O)NCCN(C)C)CCCC2)cc1
For this pair, P and Q , which shows a numerically higher IC50? Answer format: the label of the selected item.
P
